molecular target: hERG potassium channel (Homo sapiens, UniProt Q12809); assay: hERG analysis Method 1 (QPatch HT automated patch clamp, CHO cells); conditions: hERG-expressing CHO cells, tail current, room temperature (22±2° C.), 4 cumulative concentrations
Sequence (Q12809 whole entry): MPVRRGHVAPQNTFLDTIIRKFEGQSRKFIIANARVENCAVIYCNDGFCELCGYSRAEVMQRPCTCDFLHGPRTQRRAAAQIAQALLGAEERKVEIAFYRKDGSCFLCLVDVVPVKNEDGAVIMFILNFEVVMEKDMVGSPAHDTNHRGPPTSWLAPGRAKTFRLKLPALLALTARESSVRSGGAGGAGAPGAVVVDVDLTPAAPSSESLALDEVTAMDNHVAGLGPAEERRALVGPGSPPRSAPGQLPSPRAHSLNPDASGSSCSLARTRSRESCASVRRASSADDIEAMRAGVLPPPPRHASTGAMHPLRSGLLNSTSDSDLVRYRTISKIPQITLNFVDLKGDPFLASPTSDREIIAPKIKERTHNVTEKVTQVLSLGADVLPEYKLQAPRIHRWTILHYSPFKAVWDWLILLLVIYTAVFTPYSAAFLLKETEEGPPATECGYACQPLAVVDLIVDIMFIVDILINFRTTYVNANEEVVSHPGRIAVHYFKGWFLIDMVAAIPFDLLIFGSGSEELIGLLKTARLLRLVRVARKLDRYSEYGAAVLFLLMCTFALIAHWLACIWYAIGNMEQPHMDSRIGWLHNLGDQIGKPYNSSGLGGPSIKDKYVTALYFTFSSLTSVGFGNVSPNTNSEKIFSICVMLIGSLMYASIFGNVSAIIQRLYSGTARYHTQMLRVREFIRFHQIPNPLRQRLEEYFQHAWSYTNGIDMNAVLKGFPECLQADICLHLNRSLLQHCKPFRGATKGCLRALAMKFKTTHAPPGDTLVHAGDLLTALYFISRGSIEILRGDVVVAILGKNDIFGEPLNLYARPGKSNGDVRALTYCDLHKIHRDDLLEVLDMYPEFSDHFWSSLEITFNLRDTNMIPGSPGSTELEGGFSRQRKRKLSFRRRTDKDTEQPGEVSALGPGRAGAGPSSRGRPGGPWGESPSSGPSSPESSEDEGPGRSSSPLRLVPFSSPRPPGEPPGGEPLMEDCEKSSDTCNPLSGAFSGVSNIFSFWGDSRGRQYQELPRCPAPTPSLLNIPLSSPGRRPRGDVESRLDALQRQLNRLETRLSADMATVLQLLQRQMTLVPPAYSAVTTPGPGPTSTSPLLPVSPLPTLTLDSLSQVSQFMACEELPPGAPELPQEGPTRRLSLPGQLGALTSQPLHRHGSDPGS
reported-metric: IC50

Record excerpt, results attached:
- CCC[C@@H](CCO)Nc1nc(N)nc(C)c1Cc1ccc(N2CCNCC2=O)cc1OC [Example 5]: > 10 µM
- CCC[C@@H](CO)Nc1nc(N)nc(C)c1Cc1ccc(N2CCN(C)CC2=O)cc1OC [Example 4]: > 10 µM

Could you now consider this next molecule?
Lab note: molecule CCC[C@@H](CCO)Nc1nc(N)nc(C)c1Cc1ccc(N2CCN(C)CC2=O)cc1OC [Example 3] tested on hERG potassium channel (Homo sapiens, UniProt Q12809); recorded IC50 was > 10 µM
